- Tested on: serum 37 (individual 37)
- Type: binding, human
Under this convention, met denotes Binding of serum 37 to linear peptides of Orf14 of SARS-CoV TOR2 strictly below 0.7 and not met denotes Binding of serum 37 to linear peptides of Orf14 of SARS-CoV TOR2 at or above 0.7.

q: Is the reported Binding of serum 37 to linear peptides of Orf14 of SARS-CoV TOR2 for `PCYNFLKEQHCQKAS` strictly below 0.7?
a: met

q: Is the reported Binding of serum 37 to linear peptides of Orf14 of SARS-CoV TOR2 for `KEQHCQKASTQREAE` strictly below 0.7?
a: met

q: Is the reported Binding of serum 37 to linear peptides of Orf14 of SARS-CoV TOR2 for `PPCYNFLKEQHCQKA` strictly below 0.7?
a: met

q: Is the reported Binding of serum 37 to linear peptides of Orf14 of SARS-CoV TOR2 for `AVIQEIQLLAAVGEI` strictly below 0.7?
a: not met

q: Is the reported Binding of serum 37 to linear peptides of Orf14 of SARS-CoV TOR2 for `IQLLAAVGEILLLEW` strictly below 0.7?
a: met

q: Is the reported Binding of serum 37 to linear peptides of Orf14 of SARS-CoV TOR2 for `HHVVAVIQEIQLLAA` strictly below 0.7?
a: met

###

For each of the sequences below, state its Control serum LUMC linear peptides.
- System: control serum LUMC (pooled serum of ten healthy hospital workers)
- Assay type: binding, human
Simply state the number, no unit and no words.

Value sought: Control serum LUMC linear peptides, system control serum LUMC (pooled serum of ten healthy hospital workers), item `ILLLEWLAEVVKLPS` . Result: 0.5

Value sought: Control serum LUMC linear peptides, system control serum LUMC (pooled serum of ten healthy hospital workers), item `GEILLLEWLAEVVKL` . Result: 0.5

Value sought: Control serum LUMC linear peptides, system control serum LUMC (pooled serum of ten healthy hospital workers), item `PLLAPHHVVAVIQEI` . Result: 0.5

Value sought: Control serum LUMC linear peptides, system control serum LUMC (pooled serum of ten healthy hospital workers), item `ELTLIDFYLCFLAFL` . Result: 0.5

Value sought: Control serum LUMC linear peptides, system control serum LUMC (pooled serum of ten healthy hospital workers), item `YNFLKEQHCQKASTQ` . Result: 0.5

Value sought: Control serum LUMC linear peptides, system control serum LUMC (pooled serum of ten healthy hospital workers), item `TLIDFYLCFLAFLLF` . Result: 0.8

Value sought: Control serum LUMC linear peptides, system control serum LUMC (pooled serum of ten healthy hospital workers), item `LLAPHHVVAVIQEIQ` . Result: 0.6

Value sought: Control serum LUMC linear peptides, system control serum LUMC (pooled serum of ten healthy hospital workers), item `LFLVLIMLIIFWFSL` . Result: 0.4

Value sought: Control serum LUMC linear peptides, system control serum LUMC (pooled serum of ten healthy hospital workers), item `EILLLEWLAEVVKLP` . Result: 0.6

Value sought: Control serum LUMC linear peptides, system control serum LUMC (pooled serum of ten healthy hospital workers), item `QHCQKASTQREAEAA` . Result: 0.4

Value sought: Control serum LUMC linear peptides, system control serum LUMC (pooled serum of ten healthy hospital workers), item `FSLEIQDLEEPCTKV` . Result: 0.6

###

- Tested on: serum 37 (individual 37)
- Assay type: binding, human
For each of the sequences below, state its Binding of serum 37 to linear peptides of Orf14 of SARS-CoV TOR2.

Per the record, `VKPLLAPHHVVAVIQ` has Binding of serum 37 to linear peptides of Orf14 of SARS-CoV TOR2 of 0.7

Per the record, `LAAVGEILLLEWLAE` has Binding of serum 37 to linear peptides of Orf14 of SARS-CoV TOR2 of 0.7

Per the record, `AVGEILLLEWLAEVV` has Binding of serum 37 to linear peptides of Orf14 of SARS-CoV TOR2 of 0.7
